Answer each item with its documented PBM binding z-score.
# Tested on: THRa homodimer (NR concentration 90 nM)
# TEST: PBM binding z-score (relative to random genomic background probes); higher = stronger binding; sequences stand for … in GC…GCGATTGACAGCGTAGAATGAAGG
Answers are plain numbers.

Solved cases (2 shown):
CTCGAAATGTCGTGCTCAGGTGAGTATACCAAAC; 0.939
GGAACGCGGGCATTCGAGTTGATAGCATGGCGAT; -1.25

Bench note, THRa homodimer (NR concentration 90 nM): "ACTCGGAGGACAATGGTCAGAGCTACGCCAGTGA" , PBM binding z-score reads -0.526

----------
# Test system: RARa homodimer (NR concentration 270 nM)
# TEST: PBM binding z-score (relative to random genomic background probes); higher = stronger binding; sequences stand for … in GC…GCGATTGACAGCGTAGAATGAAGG
Please use the following PBM binding z-score ranges when assigning a class: low interval (below -0.3), middle interval (-0.3 to below 0.8), high interval (0.8 or more)

Past entries and their recorded results:
GCTACTTGGTCAGTAAAAGGTCACACACCGGTCG; high interval
ATCTCTAGGTAAAGTTCGGTGAAAGATCGATAGA; high interval
CAGACTAGGTCAGGGCCAGTATAGGAGGAACGTT; middle interval

-- ask Which class does "CGTAGCAGGCCAGGGTCACTCAAGCATTTCGCTT" fall in?
-- reply middle interval

-- ask Hi there! Could you help me figure out the category for "TAGCCTAGGTCAGATCGGGACAGTATACGCTATA" please?
-- reply low interval

----------
# Test system: VDR homodimer (NR concentration 270 nM)
# TEST: PBM binding z-score (relative to random genomic background probes); higher = stronger binding; sequences stand for … in GC…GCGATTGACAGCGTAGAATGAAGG
Could you please report measured PBM binding z-score for the items listed next?
One number for each entry.

Below, each entry is followed by its recorded PBM binding z-score result.
CGTCCAAGGTCAAGATCAGTGAAAGAGACTCGAA; 1.6
CCGCGTAGGTTATGGGGCATTCAGGCAACGGTGA; -0.154
CCTACTGGGCCATCAGGTTATTGATATCAACGTT; -0.275
CGTCAAAATTCAAGGTAACGTAACAGAAAGCAGC; 0.24
TCGAGTAGGTTACCAATGGCGCATTCAGCTTTCT; -0.613
ACTTACGGGTCAACGATGTTATAGCACGCGTATA; 1.21
ATATGTAGGTTACATTCGGGTCATTCAGGCTATG; 3.31

Could you now look at the following sequence, please?
In plain terms, "AGAATGAGGTTATTAAGATCAAGGAATTGCGGTC" has a documented PBM binding z-score of 1.61

----------
# System: RARa homodimer (NR concentration 270 nM)
# TEST: PBM binding z-score (relative to random genomic background probes); higher = stronger binding; sequences stand for … in GC…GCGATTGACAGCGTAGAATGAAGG
I would appreciate it if you labelled entries class 1 when PBM binding z-score is 0.5 or higher, otherwise class 0.

-- ask Check if PBM binding z-score >= 0.5 (inclusive). Item: "TCTTGTAGATCATGCAGGTTAAGAAAGCCTGAGT"
-- reply class 0

-- ask # bool: PBM binding z-score of "CCTGATAGGTCATGGTCAGCTAATCTACAGTATG" >= 0.5
-- reply class 1

-- ask Dear colleague, could you confirm whether "ATCTCCAGGTAAAGATAGTTCAGTGAATGCAAAT" has PBM binding z-score at or above 0.5?
-- reply class 1

-- ask Does the reported PBM binding z-score for "AGAATGAGGTTACCAAAGATCAGGTAAACGCTTG" fall at or above the 0.5 mark?
-- reply class 0

-- ask API: above_or_equal(metric=PBM binding z-score, cutoff=0.5) for item "TGTCAAAGTTCAAAGGTAACTTAAGTATCCACAC"
-- reply class 1

-- ask Decide: is the reported value of PBM binding z-score for "ATCTCTAGGTAAGATTCAGTTCAGTGAAGAACGC" equal to or greater than 0.5?
-- reply class 1

-- ask Has "GCATATAGGTAATACAAGGTGAAAGCCCGATTGT" a recorded PBM binding z-score greater than or equal to 0.5?
-- reply class 0
